Data origin, for the record: the supplement of paper PMC11208160

Experiment: recombinant barcode read abundance after kanamycin selection (control-corrected) (log10(CPM+1)); higher = more efficient recombination; sequences stand for … in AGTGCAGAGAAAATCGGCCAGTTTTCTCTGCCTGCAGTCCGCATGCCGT…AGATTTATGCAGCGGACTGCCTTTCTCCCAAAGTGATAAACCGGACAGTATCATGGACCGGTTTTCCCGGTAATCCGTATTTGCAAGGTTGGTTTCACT; site = the 11-nt target;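 also: IS621 recombinase and bridge RNA in Escherichia coli cells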
quantity_name: recombinant barcode read abundance (log10)

Can you share its recombinant barcode read abundance (log10)? I mean this sequence: CGGTGTCCTTGGGTTCTAACCTGTTGCTA (site CGGTGTCCTTA)
1.33

Please answer likewise for TTACCGACTTGGGTTCTAACCTGTTGCCT (site TTACCAACTAG)
1.23

Also, CTCTATACTTGGGTTCTAACCTGTTGCCA (site CTCTATACTTG) please.
0.0112

Record: CGAATCGCTTGGGTTCTAACCTGTTGCCT (site CGAATCCCTAG)
0.0216

What do you get for TATTCTACTTGGGTTCTAACCTGTTGCGC (site TATTCTACTGC) ?
0.0329

Next sequence up: GCGCTAGCTTGGGTTCTAACCTGTTGCCT (site ACGCTAGCTAG)
0.125

Request: CTGGGCTCTTGGGTTCTAACCTGTTGCCA (site CTGGGCTCTTG)
1.14

Same thing, different sequence: AGTCTAGCTTGGGTTCTAACCTGTTGCCT (site AGTCTAGCTGG)
0.141

Now the same for GACCTACCTTGGGTTCTAACCTGTTGCCT (site GACTTACCTAG)
0.359

Next: GCCATTACTTGGGTTCTAACCTGTTGCCT (site GCCATGACTAG)
0.297

Moving on to the next sequence: GAGGTATCTTGGGTTCTAACCTGTTGCTT (site GAGGTATCTTA)
0.0893

Another: CTCTACTCTTGGGTTCTAACCTGTTGCGT (site TGACCTACTTG)
0.0348

Please answer likewise for GGGCTTACTTGGGTTCTAACCTGTTGCCT (site GCGCTTACTAG)
0.362

Now consider TAGGAGACTTGGGTTCTAACCTGTTGCCC (site CAGGAGACTAG) .
0.0355

Input ACCCAGCCTTGGGTTCTAACCTGTTGCAG (site ACCCAGCCTCT)
2.27

Can you check GTCTTATCTTGGGTTCTAACCTGTTGCCT (site GTCTTATCTAG) next?
1.14

Cool, now AGGCTGTCTTGGGTTCTAACCTGTTGCCT (site AGGCTGTCTAG)
1.84

Request: TAGCCATCTTGGGTTCTAACCTGTTGCCT (site TACCCATCTAG)
0.166

// repeat for CTTCAGCCTTGGGTTCTAACCTGTTGCCT (site CTTCATCCTAG) and report
0

// query: CGATCTACTTGGGTTCTAACCTGTTGCAG (site CGATCTACTCT)
0.0308

And what about the sequence ATATGATCTTGGGTTCTAACCTGTTGCCT (site ATATTATCTTG) ?
0.145

Query CTACGAACTTGGGTTCTAACCTGTTGCTG (site CTACGAACTCA) next
1.53

Record: CTAGGATCTTGGGTTCTAACCTGTTGCGT (site CTAGTCTCTAC)
0.152

Also need GCTTCTTCTTGGGTTCTAACCTGTTGCCT (site GCTTCTTCTAG) , thanks.
0.0876

Repeat for the following sequence: GAGGTATCTTGGGTTCTAACCTGTTGCGT (site GAGGTATCTTG)
0.303

Consider next the sequence GGGTTGCCTTGGGTTCTAACCTGTTGCCT (site GGGTTGCCTAG) in the same way.
1.46

Thanks! And CAGAGATCTTGGGTTCTAACCTGTTGCTT (site CATAGATCTAA) ?
0.104

What about this sequence? TCCAATCCTTGGGTTCTAACCTGTTGCAG (site TCCAAGCCTCT)
0.167

Could you do the same for CCGTAATCTTGGGTTCTAACCTGTTGCCT (site CCGTAATCTAG) , please?
0.308

Okay, and CGAGAACCTTGGGTTCTAACCTGTTGCCT (site GGAGAACCTAG) ?
0.0316

Next: ATCGGAGCTTGGGTTCTAACCTGTTGCCT (site ATCGGATCTAG)
0.181

Now consider CTATGGACTTGGGTTCTAACCTGTTGCCT (site CTATTGACTAG) and answer again.
0.027

Please answer likewise for CTCCAAGCTTGGGTTCTAACCTGTTGCCT (site CTTCAAGCTAG)
0.0961

Input GGGTCCACTTGGGTTCTAACCTGTTGCAT (site GGGTCCACTAT)
2.17

Input CACAGTCCTTGGGTTCTAACCTGTTGCTA (site CACAGTCCTTA)
0.966

What about AATGCTACTTGGGTTCTAACCTGTTGCAT (site AATGCTACTAT) ?
0.235

Can you check CCGTAACCTTGGGTTCTAACCTGTTGCCT (site CCGTAAACTAG) next?
0.149

Moving on to the next sequence: TCTCACGCTTGGGTTCTAACCTGTTGCCT (site TCTCACGCTAG)
0.964

And AGGCTGTCTTGGGTTCTAACCTGTTGCCT (site AGGCTGGCTAG) ?
0.0597

Try this sequence next: CAAAGATCTTGGGTTCTAACCTGTTGCTT (site CAAAGATCTAA)
1.03

Continue with TCGGAGTCTTGGGTTCTAACCTGTTGCCT (site TCGGAGTCTAA)
0.128

Subsequent entry: TTAGACCCTTGGGTTCTAACCTGTTGCCT (site GTAGACCCTAG)
0.341
